// reported logP per item
Give the value as a plain number.

Examples from the recorded data:
>>> print(df.to_string())
    moleculesmiles  measuredattribute  readoutnumber
0      CCOc1ncccn1               logP           0.74
1      N#Cc1ccnnc1               logP          -0.63
2  CC(=O)Nc1ccncn1               logP           0.03
3       COc1cnccn1               logP           0.73
4    CN(C)c1ccncn1               logP           0.58
5      CCOc1ccccn1               logP           1.81

// `COC(=O)c1cncnc1` : logP value = 0.03

// `Clc1cccnn1` : logP value = 0.1

// `CCCOc1ccccn1` : logP value = 2.38

* * *

// reported logP per item
experimentNotes: method code SF-AS, from DOI: 10.1002/qsar.19900090404
Give the value as a plain number.

Examples from the recorded data:
In [3]: df
Out[3]:
    moleculesmiles  readoutnumber
0   CC(=O)c1cnccn1            0.2
1  COC(=O)c1ncccn1          -0.71
2   NC(=O)c1ncccn1           -1.2
3        Fc1cncnc1          -0.03
4        Fc1cnccn1           0.29

// `NC(=O)c1cnccn1` : logP value = -0.5

// `CSc1ncccn1` : logP value = 1.01

// `Nc1ccncn1` : logP value = -0.25

// `CC(=O)Nc1ccnnc1` : logP value = -0.41

// `Cc1ccnnc1` : logP value = -0.32

// `CCOC(=O)c1ncccn1` : logP value = -0.31

* * *

experimentNotes: method code SF-AS, from DOI: 10.1002/qsar.19900090404
measuredAttribute: logP
Give the value as a plain number.

Examples from the recorded data:
In [3]: df
Out[3]:
     moleculesmiles  readoutnumber
0    NC(=O)c1cccnn1          -0.73
1        COc1cncnc1           0.07
2   CC(=O)Nc1cncnc1          -0.22
3         Cc1cncnc1           0.01
4  CCOC(=O)c1cnccn1           0.28

// `CCOc1ccncn1` : logP value = 0.97

// `Nc1ccnnc1` : logP value = -0.53

// `Clc1cnccn1` : logP value = 0.7

* * *

experimentNotes: method code SF-AS, from DOI: 10.1002/qsar.19900090404
measuredAttribute: logP
Give the value as a plain number.

Examples from the recorded data:
In [3]: df
Out[3]:
    moleculesmiles  readoutnumber
0        Cc1ncccn1          -0.05
1      CCOc1cncnc1           0.56
2      CCOc1cccnn1           0.63
3       CCc1ccccn1            1.6
4  COC(=O)c1cccnn1          -0.43

// `Fc1ncccn1` : logP value = 0.02

// `COc1ncccn1` : logP value = 0.23

// `CC(=O)Nc1cnccn1` : logP value = -0.03

// `CN(C)c1ncccn1` : logP value = 1.07
